Hello, the source for this data is patent US20240018502A1, in case you need it.

Each record here notes measured log10 EC50 of hC3 cleavage.
- Assayed Target: plasma purified human complement protein C3 (human) (UniProt P01024)
- Sequence (P01024 23-667, chain 1 of 2): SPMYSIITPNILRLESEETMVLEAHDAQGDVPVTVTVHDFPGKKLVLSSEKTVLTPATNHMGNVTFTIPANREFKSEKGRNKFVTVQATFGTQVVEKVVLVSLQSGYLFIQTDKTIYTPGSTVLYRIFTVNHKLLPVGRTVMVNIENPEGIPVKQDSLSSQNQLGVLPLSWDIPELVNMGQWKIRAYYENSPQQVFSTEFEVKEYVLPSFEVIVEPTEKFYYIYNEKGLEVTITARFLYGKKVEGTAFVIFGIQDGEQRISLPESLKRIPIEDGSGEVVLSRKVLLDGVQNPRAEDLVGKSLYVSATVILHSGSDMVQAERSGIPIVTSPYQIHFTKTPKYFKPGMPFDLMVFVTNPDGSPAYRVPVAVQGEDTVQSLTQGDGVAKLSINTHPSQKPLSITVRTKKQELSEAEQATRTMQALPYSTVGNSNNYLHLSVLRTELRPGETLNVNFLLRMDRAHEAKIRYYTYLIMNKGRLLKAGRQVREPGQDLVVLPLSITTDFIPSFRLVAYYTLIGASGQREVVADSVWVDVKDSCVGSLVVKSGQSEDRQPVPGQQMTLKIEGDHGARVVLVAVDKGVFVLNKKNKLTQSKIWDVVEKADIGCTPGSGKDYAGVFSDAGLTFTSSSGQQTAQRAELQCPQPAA
- Sequence (P01024 672-1663, chain 2 of 2): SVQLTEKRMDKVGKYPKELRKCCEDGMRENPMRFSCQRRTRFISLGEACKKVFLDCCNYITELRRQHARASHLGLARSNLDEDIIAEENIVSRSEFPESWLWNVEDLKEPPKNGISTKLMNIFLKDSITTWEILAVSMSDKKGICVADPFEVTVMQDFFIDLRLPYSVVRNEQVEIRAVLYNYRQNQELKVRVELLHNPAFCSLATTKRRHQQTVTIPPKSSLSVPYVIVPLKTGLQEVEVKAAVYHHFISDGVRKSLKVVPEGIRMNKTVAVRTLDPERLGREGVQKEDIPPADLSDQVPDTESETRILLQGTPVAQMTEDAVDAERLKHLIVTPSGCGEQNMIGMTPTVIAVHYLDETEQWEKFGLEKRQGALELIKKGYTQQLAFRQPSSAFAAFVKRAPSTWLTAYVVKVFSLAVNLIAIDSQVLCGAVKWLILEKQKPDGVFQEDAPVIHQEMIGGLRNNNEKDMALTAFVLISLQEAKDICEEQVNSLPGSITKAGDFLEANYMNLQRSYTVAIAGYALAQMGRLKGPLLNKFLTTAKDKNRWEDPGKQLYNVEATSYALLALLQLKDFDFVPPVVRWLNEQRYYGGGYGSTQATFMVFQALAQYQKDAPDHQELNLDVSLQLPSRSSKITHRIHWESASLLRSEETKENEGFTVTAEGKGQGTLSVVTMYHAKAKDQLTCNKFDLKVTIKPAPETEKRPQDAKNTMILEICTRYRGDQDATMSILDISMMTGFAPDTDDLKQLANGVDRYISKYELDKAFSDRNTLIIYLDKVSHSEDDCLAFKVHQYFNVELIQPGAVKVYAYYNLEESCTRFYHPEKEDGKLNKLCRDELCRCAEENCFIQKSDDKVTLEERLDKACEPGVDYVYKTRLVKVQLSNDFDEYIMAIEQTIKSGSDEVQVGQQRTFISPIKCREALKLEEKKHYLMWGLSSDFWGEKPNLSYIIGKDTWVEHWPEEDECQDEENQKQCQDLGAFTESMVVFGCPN
- Procedure Text: cell-based or functional assay
Observed Property: log10 EC50 of hC3 cleavage (log10 of the value in nM)

{"Binder": "MTSP-1 I41S/D96K/F97G/ins97aV/T98P/F99L/C122S/Q175L/Q192D (enzyme) VVGGTDADEGEWPWQVSLHALGQGHSCGASLISPNWLVSAAHCYIDDRGFRYSDPTQWTAFLGLHDQSQRSAPGVQERRLKRIISHPFFNKGVPLDYDIALLELEKPAEYSSMVRPISLPDASHVFPAGKAIWVTGWGHTQYGGTGALILQKGEIRVINQTTCENLLPQLITPRMMCVGFLSGGVDSCDGDSGGPLSSVEADGRIFQAGVVSWGDGCAQRNKPGVYTRLPLFRDWIKENTGV", "log10 EC50 of hC3 cleavage": 1.84}
{"Binder": "MTSP-1 H40P/I41R/F99L/C122S/G151E/Q192G (enzyme) VVGGTDADEGEWPWQVSLHALGQGPRCGASLISPNWLVSAAHCYIDDRGFRYSDPTQWTAFLGLHDQSQRSAPGVQERRLKRIISHPFFNDFTLDYDIALLELEKPAEYSSMVRPISLPDASHVFPAGKAIWVTGWGHTQYGGTEALILQKGEIRVINQTTCENLLPQQITPRMMCVGFLSGGVDSCGGDSGGPLSSVEADGRIFQAGVVSWGDGCAQRNKPGVYTRLPLFRDWIKENTGV", "log10 EC50 of hC3 cleavage": 2.18}
{"Binder": "MTSP-1 Q38H/I41A/D60bT/F60eH/Y60gW/ins97aE/F97T/T98G/F99L/C122S/Q175L/Q192D (enzyme) VVGGTDADEGEWPWQVSLHALGHGHACGASLISPNWLVSAAHCYIDTRGHRWSDPTQWTAFLGLHDQSQRSAPGVQERRLKRIISHPFFNDTEGLDYDIALLELEKPAEYSSMVRPISLPDASHVFPAGKAIWVTGWGHTQYGGTGALILQKGEIRVINQTTCENLLPQLITPRMMCVGFLSGGVDSCDGDSGGPLSSVEADGRIFQAGVVSWGDGCAQRNKPGVYTRLPLFRDWIKENTGV", "log10 EC50 of hC3 cleavage": 0.36}
{"Binder": "MTSP-1 Q38G/H40R/I41H/D60bK/F97D/F99L/C122S/Q175L/Q192G (enzyme) VVGGTDADEGEWPWQVSLHALGGGRHCGASLISPNWLVSAAHCYIDKRGFRYSDPTQWTAFLGLHDQSQRSAPGVQERRLKRIISHPFFNDDTLDYDIALLELEKPAEYSSMVRPISLPDASHVFPAGKAIWVTGWGHTQYGGTGALILQKGEIRVINQTTCENLLPQLITPRMMCVGFLSGGVDSCGGDSGGPLSSVEADGRIFQAGVVSWGDGCAQRNKPGVYTRLPLFRDWIKENTGV", "log10 EC50 of hC3 cleavage": 1.31}
{"Binder": "MTSP-1 Q38L/H40P/I41T/D60bV/F60eH/Y60gL/ins97aE/F97T/T98G/F99L/C122S/Q175L/Q192A (enzyme) VVGGTDADEGEWPWQVSLHALGLGPTCGASLISPNWLVSAAHCYIDVRGHRLSDPTQWTAFLGLHDQSQRSAPGVQERRLKRIISHPFFNDTEGLDYDIALLELEKPAEYSSMVRPISLPDASHVFPAGKAIWVTGWGHTQYGGTGALILQKGEIRVINQTTCENLLPQLITPRMMCVGFLSGGVDSCAGDSGGPLSSVEADGRIFQAGVVSWGDGCAQRNKPGVYTRLPLFRDWIKENTGV", "log10 EC50 of hC3 cleavage": 0.81}
